molecular target: T1, bovine thrombin (Bos taurus, UniProt P00735); experiment: Thrombin induction of autoinhibited TVMV-based biosensor protease activity (quenched fluorescent TVMV substrate); assay type: biochemical; settings: biosensor 1 μM, 10 μM protease substrate, presence vs absence of bovine thrombin (1 U per 200 μL)
T1 construct: addition of bovine thrombin (1 U per 200 μL)
MEASURE: Fold Induction

Query: Give me measured Fold Induction, please, for this molecule: 68-GP: thrombin-inducible autoinhibited TVMV biosensor, SEQ ID NO: 4 (protein, protease construct) SSGSKALLKGVRDFNPISACVCLLENSSDGHSERLFGIGFGPYIIANQHLFRRNNGELTIKTMHGEFKVKNSTQLQMKPVEGRDIIVIKMAKDFPPFPQKLKFRQPTIKDRVCMVSTNFQQKSVSSLVSESSHIVHMRDTSFWQHWITTKDGQCGSPLVSIIDGNILGIHSLTHTTNGSNYFVEFPEKFVATYLDAADGWCKNWKFNADKISWGSFILWEDSGLVPRGVSGEGEYVRFGPGSTHHHHHH
Response: ~60 fold

Source of measurements: patent US9791436B2
